Sourced from PubChem BioAssay (NCI)

- Test system: NCI/ADR-RES ovarian
- testProtocol: NCI tumour cell line growth inhibition, 48 h
In this section, each of the molecules is paired with its reported TGI.
endpointName: TGI (µM)

molecule	limitQualifier	endpointResult
COc1ccc(CC[N+]2(C)COc3cc4oc(=O)cc(C)c4cc3C2)cc1OC (centres undefined)	>	100
O=C1C2CC[C@@H]3C(=O)C(Cl)(Cl)[C@@H]3CCC2C1(Cl)Cl (some centres undefined)	>	100
O=C(OC[C@@H]1CO1)c1cccc2c(=O)c3ccccc3[nH]c12	=	2.08
O=C1c2ccccc2C(=O)c2sc(Nc3cc(Cl)ccc3Cl)nc21	=	7.31

----------
- System: OVCAR-4 ovarian
- testProtocol: NCI tumour cell line growth inhibition, 48 h
endpointName: TGI (µM)

compound	limitQualifier	endpointResult
C#CCOC(=O)C(=[N+]=[N-])C(=O)CC(C)C	>	10
COc1ccc(-c2cc(-c3ccccc3)nc(NCCNc3ccnc4cc(Cl)ccc34)n2)cc1	=	3.71
O=c1c2cc(I)ccc2nc(-c2cccs2)n1O	=	96.9
COc1ccc2c(c1)[n+](=O)c(C(C)=O)c(C)n2[O-]	>	100
Cc1nc2c(Br)cc(Br)cc2c(=O)n1-c1ccccc1NC1OCC(O)C(O)C1O (stereo not given)	>	100
O=C(c1ccccc1)C(Br)C(Br)c1ccccc1 (stereo not given)	=	3.08
O=C(Nc1ccc(C(F)(F)F)cc1[N+](=O)[O-])c1cccnc1	>	100
C#Cc1cccc(NC(=O)C2CCCN(C(=O)CCl)C2)c1 (stereo not given)	=	52.8
Cc1ncc(CSC(=N)N)n1Cc1ccccc1	>	100
C=CCOC(=O)N1c2ccc(O)cc2[C@@]23O[C@@]24[C@@H]1C#C/C=C\C#C[C@]3(O)C(=O)C[C@@H]4C	=	50.1
CNCc1ccc(-c2[nH]c3cc(F)cc4c3c2CCNC4=O)cc1	=	47.8
Cc1ccc(-n2cc(-c3ccc(Cl)cc3)c3c(=N)n(N)cnc32)cc1	=	22.5
COc1ccc(N=Nc2c(N)nn3c(SC)c(C#N)c(N)nc23)cc1	=	35
COc1cc2c(cc1OC)C(=O)N(c1ccc(OCCN3CCCC3)cc1)C2=O	>	100
O=C1C2CC[C@@H]3C(=O)C(Cl)(Cl)[C@@H]3CCC2C1(Cl)Cl (stereo not given in full)	>	100
COc1cc([C@@H]2Oc3cc4oc(-c5ccccc5)cc(=O)c4c(O)c3O[C@H]2OC)ccc1O	=	29.1
COC(=O)c1sc(=NC(=S)N2CCCCC2)sc1C(=O)OC	>	100
O=C(OC[C@@H]1CO1)c1cccc2c(=O)c3ccccc3[nH]c12	=	4.72
C(=C\c1c2oc(-c3ccccc3)cc(-c3ccccc3)c-2c2ccccc12)/C=C1\c2ccccc2-c2c(-c3ccccc3)cc(-c3ccccc3)[o+]c21	>	100
COC(=O)CC1CC2(C(=O)OC)c3[nH]c4ccccc4c3CCN2C1=O (stereo not given)	>	100
CNCc1cccc2c1OCCOCCOCCC(C)S(=O)(=O)c1ccc(cc1)-c1cnc(N)c(n1)C(=O)N2 (stereo not given)	=	4.32
CCCCCCCCCCCCCCC(C)CCC(=O)O (stereo not given)	>	100
Fc1ccc(-c2nn3c(COc4ccc(Cl)cc4)nnc3s2)cc1Oc1ccccc1	>	100
CC(CC=O)Nc1nn2c(=O)c3ccccc3nc2s1 (stereo not given)	>	100
COC1OC(C(=O)O)C2OC(C)(C)OC12 (stereo not given)	>	100
O=C(NCc1ccccc1Cl)c1c(O)c2ccccc2[nH]c1=O	=	23.2
O=C(c1ccccc1)c1cc(Cl)ccc1NCn1nnc2ccccc21	>	100
CCOC(=O)C1C(c2ccc(OC)cc2)c2c([nH]n(-c3ccccc3)c2=O)CC1(C)O (stereo not given)	>	100
COc1cc2c(cc1OCCCOc1ccc(-c3cc4ccccc4c4ccccc34)cc1)N=C[C@@H]1CCCN1C2=O	=	2.21
c1ccc(-c2c(-c3[nH]c4ccccc4c3-c3ccccc3)[nH]c3ccccc23)cc1	=	8.78
CCOC(=O)c1cc2c3c(cc(OC)c2[nH]1)N(C(=O)OCC)CC3	>	100
NC(Cc1ccccc1CP(=O)(O)O)C(=O)O (stereo not given)	>	100
CCOC(=O)c1c(-c2ccccc2)c(C)cn1C	>	10
CC(=O)O[C@H]1C(=O)[C@@]2(C)[C@H]([C@H](OC(=O)c3ccco3)[C@]3(O)C[C@H](OC(=O)[C@H](O)[C@@H](NC(=O)c4ccccc4)c4ccccc4)C(C)=C1C3(C)C)[C@]1(OC(C)=O)CO[C@@H]1C[C@@H]2O	>	25
c1cncc(C2ONC3=NCCN32)c1 (stereo not given)	>	100

----------
- Tested on: MDA-MB-231 breast
- testProtocol: NCI tumour cell line growth inhibition, 48 h
endpointName: TGI

compound	endpointResult
CC(=O)O[C@H]1C(=O)[C@@]2(C)[C@H]([C@H](OC(=O)c3ccco3)[C@]3(O)C[C@H](OC(=O)[C@H](O)[C@@H](NC(=O)c4ccccc4)c4ccccc4)C(C)=C1C3(C)C)[C@]1(OC(C)=O)CO[C@@H]1C[C@@H]2O	> 25 µM
C#CCOC(=O)C(=[N+]=[N-])C(=O)CC(C)C	> 10 µM
CC(=O)NN(c1ccccc1)C1CCN(c2ccccc2)N1C(C)=O (stereo not drawn)	> 10 µM

----------
- Tested on: T-47D breast
- testProtocol: NCI tumour cell line growth inhibition, 48 h; in the data active = GI50 below about 0.43 µM; inactive = the rest
Outcome codes: YES for active, NO for inactive

molecule	classLabel
C#CC#CC#CC#CC#CC#CC#CC#CC[C@@H]1OC[C@@H](COC(=O)O[C@@H](C(=O)O[C@H]2C[C@@]3(O)[C@@H](OC(=O)c4ccccc4)[C@@H]4[C@]5(OC(C)=O)CO[C@@H]5C[C@H](O)[C@@]4(C)C(=O)[C@H](OC(C)=O)C(=C2C)C3(C)C)[C@@H](NC(=O)c2ccccc2)c2ccccc2)O1	YES
Fc1ccc(-c2nn3c(COc4ccc(Cl)cc4)nnc3s2)cc1Oc1ccccc1	NO
O=C(C(=O)c1cc(Br)ccc1O)c1cc(Br)ccc1O	NO
O=C(N/N=C/c1ccc(F)cc1)c1ccc(C(F)(F)F)nc1Nc1cccc(C(F)(F)F)c1	NO
COC(=O)[C@H](Cc1cn(C)cn1)NC(=O)[C@@H](NC(=O)Nc1cc(C(F)(F)F)cc(C(F)(F)F)c1)C(C)C	NO
C=C1CC/C=C(\C)CC[C@H](C(=C)C)[C@@H](O)/C=C(/CO)CCC1O (stereo partly drawn)	NO
NC(N)=N/N=C/c1c(-c2ccncc2)nc2sc(Cl)cn12	NO
N/C(=N\C(N)=N\c1nc2ccccc2s1)c1cnccn1	NO
CC1(C)CC[C@]2(C(=O)O)CC[C@]3(C)C(=CC[C@@H]4[C@@]5(C)C/C(=C/c6ccco6)C(=O)C(C)(C)[C@@H]5CC[C@]43C)[C@@H]2C1	NO
CC[C@@]1(O)C(=O)OCc2c1cc1n(c2=O)Cc2c-1nc1ccccc1c2C=Nc1ccccc1N[C@@H]1c2cc3c(cc2[C@@H](c2cc(OC)c(O)c(OC)c2)[C@H]2C(=O)OC[C@@H]21)OCO3	YES
COc1ccc(/C(C)=C(\c2ccc(Cl)cc2)c2ccc(OCCN3CCCCCC3)cc2)cc1F	NO
COc1cc(/C=C\c2cc(OC)c(OC)c(OC)c2)cc(NS(=O)(=O)c2ccc(Cl)cc2)c1OC	YES
CCN(CC)CCNc1ccc([N+](=O)[O-])c2sc3cc(Cl)ccc3c(=O)c12	NO

----------
- Tested on: A498 renal
- testProtocol: NCI tumour cell line growth inhibition, 48 h

compound	TGI
O=C(Nc1ccc(C(F)(F)F)cc1[N+](=O)[O-])c1cccnc1	> 100 µM
COC(=O)[C@@H]1COC(=O)N1	> 100 µM
CCSc1ncc(Br)c(Sc2nc(N)nc3nc[nH]c23)n1	> 100 µM
CC(C)=CC(=O)c1c(C(=O)O)nc2ccccc2[n+]1[O-]	> 100 µM
COc1ccc(OCC(O)CN2CCN(c3ccc(Cl)cc3)CC2)cc1 (centres undefined)	> 100 µM
Cc1cc(C)nc(NS(=O)(=O)c2ccc(Nc3c4ccccc4nc4ccc(C(=O)Nc5ccc(S(=O)(=O)N=C(N)N)cc5)cc34)cc2)n1	> 100 µM
Oc1ccc(SCc2cc(O)ccc2O)cc1	> 89.4 µM
Cc1cc2c(cc1Cl)Sc1n[nH]c(=O)n1S2(=O)=O	90.8 µM
COc1ccc(/C=C/C(C)=N/OCC(=O)Nc2ccc(Cl)cc2)cc1	16.6 µM

----------
- Tested on: SK-MEL-28 melanoma
- testProtocol: NCI tumour cell line growth inhibition, 48 h
# TGI per entry
endpointName: TGI

molecule	endpointName	endpointResult
COc1ccc(/C=C\c2cc(OC)c(OC)c(OC)c2)c(NS(=O)(=O)c2ccc(C(C)(C)C)cc2)c1O	TGI	22.2 µM
[Cl-].[Gd+3].[O-]/N=C(\c1ccccc1)c1ccccn1.[O-]/N=C(\c1ccccc1)c1ccccn1.[O-]/N=C(\c1ccccc1)c1ccccn1	TGI	> 100 µM
Cc1ncc(CSC(=N)N)n1Cc1ccccc1	TGI	> 100 µM
O=c1c2cc(I)ccc2nc(-c2cccs2)n1O	TGI	> 100 µM
C=CCNC1=C2C[C@@H](C)C[C@@H](OC)[C@H](OC(=O)CCN(C)C)[C@H](C)/C=C(\C)[C@@H](OC(N)=O)[C@H](OC)/C=C\C=C(/C)C(=O)NC(=CC1=O)C2=O	TGI	21.9 µM
COc1ccc(C23OCC(Cc4cc(OC)c(OC)cc42)C3CO)cc1OC (stereo not drawn)	TGI	> 100 µM
O=C(O)Cn1ccc(=O)c2cc([N+](=O)[O-])ccc21	TGI	> 100 µM
COc1ccc(CC[N+]2(C)COc3cc4oc(=O)cc(C)c4cc3C2)cc1OC (stereo not drawn)	TGI	> 100 µM
